Origin of the recorded values: ChEMBL document CHEMBL1134569

test system: Plasmodium falciparum; assay: Inhibitory activity against chloroquine-resistant Plasmodium falciparum FcB1R; assay type: functional, organism-based; details: Plasmodium falciparum
metric.name: IC50

Some molecules with known IC50 results, for comparison:
CN1CCN(Cc2cc(NC(=O)CN3CCCCC3)cc(Nc3ccnc4cc(Cl)ccc34)c2)CC1 | 7.5 nM
CN(C)CCNCc1cc(NC(=O)CN2CCCCC2)cc(Nc2ccnc3cc(Cl)ccc23)c1 | 15.5 nM
O=C(CN1CCCCC1)Nc1cc(CN2CCN(Cc3ccc4c(c3)OCO4)CC2)cc(Nc2ccnc3cc(Cl)ccc23)c1 | 6.9 nM
CCN(CC)Cc1cc(Nc2ccnc3cc(Cl)ccc23)ccc1O.Cl | 7.4 nM
O=C(CN1CCCCC1)Nc1cc(COC(=O)CCN2CCCCC2)cc(Nc2ccnc3cc(Cl)ccc23)c1 | 78.3 nM
O=C(CN1CCCCC1)Nc1cc(CN2CCN(Cc3ccccc3)CC2)cc(Nc2ccnc3cc(Cl)ccc23)c1 | 13 nM
CCN(CC)Cc1cc(NC(=O)CN2CCCCC2)cc(Nc2ccnc3cc(Cl)ccc23)c1 | 8.2 nM
N#Cc1ccc(CN2CCN(Cc3cc(NC(=O)CN4CCCCC4)cc(Nc4ccnc5cc(Cl)ccc45)c3)CC2)cc1 | 13.3 nM

# input for lookup
q: Retrieve IC50 measured for O=C(CN1CCCCC1)Nc1cc(COC(=O)CCCCN2CCOCC2)cc(Nc2ccnc3cc(Cl)ccc23)c1 and print it.
a: 14.1 nM

----------
test system: Plasmodium falciparum; test: Inhibitory activity against chloroquine-resistant Plasmodium falciparum FcB1R; format: functional, organism-based; settings: Plasmodium falciparum
metric.name: IC50
The reply should consist of the numeric value with the unit placed after it.

Some compounds with known IC50 results, for comparison:
O=C(CN1CCCCC1)Nc1cc(COC(=O)CCCCBr)cc(Nc2ccnc3cc(Cl)ccc23)c1 | 151 nM
O=Cc1cc(NC(=O)CN2CCCCC2)cc(Nc2ccnc3cc(Cl)ccc23)c1 | 282 nM
O=C(CN1CCCCC1)Nc1cc(CN2CCN(CCO)CC2)cc(Nc2ccnc3cc(Cl)ccc23)c1 | 11.5 nM
O=C(CN1CCCCC1)Nc1cc(CN2CCCC2)cc(Nc2ccnc3cc(Cl)ccc23)c1 | 6.9 nM
O=C(CN1CCCCC1)Nc1cc(CNCc2ccc(Cl)cc2)cc(Nc2ccnc3cc(Cl)ccc23)c1 | 4.6 nM
O=C(CN1CCCCC1)Nc1cc(CN2CCN(C(c3ccccc3)c3ccccc3)CC2)cc(Nc2ccnc3cc(Cl)ccc23)c1 | 12.5 nM
O=C(CN1CCCCC1)Nc1cc(COC(=O)CCCCCN2CCCCC2)cc(Nc2ccnc3cc(Cl)ccc23)c1 | 27.4 nM
CCN(CC)CCCCC(=O)OCc1cc(NC(=O)CN2CCCCC2)cc(Nc2ccnc3cc(Cl)ccc23)c1 | 141 nM

For every listed record, write down its IC50.
1. Nc1cc(CO)cc(Nc2ccnc3cc(Cl)ccc23)c1
2. CC(C)(C)NCC(=O)Nc1cc(CO)cc(Nc2ccnc3cc(Cl)ccc23)c1

a:
279 nM
50.9 nM

For every listed record, write down its IC50.
1. COc1ccc(CN2CCN(Cc3cc(NC(=O)CN4CCCCC4)cc(Nc4ccnc5cc(Cl)ccc45)c3)CC2)cc1
2. O=C(CN1CCCCC1)Nc1cc(CN2CCCCC2)cc(Nc2ccnc3cc(Cl)ccc23)c1

a:
["11 nM", "10.2 nM"]
